assay: total protein half-life in vivo (active degradation + dilution); higher = more stable protein; settings: wild type E. coli NCM3722; growth: N-lim chemostat; doubling time 12 h

sequence.code	total protein half-life in vivo [h]
MPGLKITLLQQPLVWMDGPANLRHFDRQLEGITGRDVIVLPEMFTSGFAMEAAASSLAQDDVVNWMTAKAQQCNALIAGSVALQTESGSVNRFLLVEPGGTVHFYDKRHLFRMADEHLHYKAGNARVIVEWRGWRILPLVCYDLRFPVWSRNLNDYDLALYVANWPAPRSLHWQALLTARAIENQAYVAGCNRVGSDGNGCHYRGDSRVINPQGEIIATADAHQATRIDAELSMAALREYREKFPAWQDADEFRLW	6.49
MALLNVDKLSVHFGDESAPFRAVDRISYSVKQGEVVGIVGESGSGKSVSSLAIMGLIDYPGRVMAEKLEFNGQDLQRISEKERRNLVGAEVAMIFQDPMTSLNPCYTVGFQIMEAIKVHQGGNKSTRRQRAIDLLNQVGIPDPASRLDVYPHQLSGGMSQRVMIAMAIACRPKLLIADEPTTALDVTIQAQIIELLLELQQKENMALVLITHDLALVAEAAHKIIVMYAGQVVETGDAHAIFHAPRHPYTQALLRALPEFAQDKERLASLPGVVPGKYDRPNGCLLNPRCPYATDRCRAEEPALNMLADGRQSKCHYPLDDAGRPTL [P0AAG0]	12.6
MDKQSLHETAKRLALELPFVELCWPFGPEFDVFKIGGKIFMLSSELRGVPFINLKSDPQKSLLNQQIYPSIKPGYHMNKKHWISVYPGEEISEALLRDLINDSWNLVVDGLAKRDQKRVRPG [P0AAT2]	10.1

====

test: total protein half-life in vivo (active degradation + dilution); higher = more stable protein; settings: wild type E. coli NCM3722; growth: N-lim chemostat; doubling time 12 h
# total protein half-life in vivo per record follows
value.kind: total protein half-life in vivo

sequence.code	experimental.result
MATIKDVAKRANVSTTTVSHVINKTRFVAEETRNAVWAAIKELHYSPSAVARSLKVNHTKSIGLLATSSEAAYFAEIIEAVEKNCFQKGYTLILGNAWNNLEKQRAYLSMMAQKRVDGLLVMCSEYPEPLLAMLEEYRHIPMVVMDWGEAKADFTDAVIDNAFEGGYMAGRYLIERGHREIGVIPGPLERNTGAGRLAGFMKAMEEAMIKVPESWIVQGDFEPESGYRAMQQILSQPHRPTAVFCGGDIMAMGALCAADEMGLRVPQDVSLIGYDNVRNARYFTPALTTIHQPKDSLGETAFNMLLDRIVNKREEPQSIEVHPRLIERRSVADGPFRDYRR [P0ACP7]	7.74 h
MSHLDNGFRSLTLQRFPATDDVNPLQAWEAADEYLLQQLDDTEIRGPVLILNDAFGALSCALAEHKPYSIGDSYISELATRENLRLNGIDESSVKFLDSTADYPQQPGVVLIKVPKTLALLEQQLRALRKVVTSDTRIIAGAKARDIHTSTLELFEKVLGPTTTTLAWKKARLINCTFNEPQLADAPQTVSWKLEGTDWTIHNHANVFSRTGLDIGARFFMQHLPENLEGEIVDLGCGNGVIGLTLLDKNPQAKVVFVDESPMAVASSRLNVETNMPEALDRCEFMINNALSGVEPFRFNAVLCNPPFHQQHALTDNVAWEMFHHARRCLKINGELYIVANRHLDYFHKLKKIFGNCTTIATNNKFVVLKAVKLGRRR	8.16 h
MAQLYFYYSAMNAGKSTALLQSSYNYQERGMRTVVYTAEIDDRFGAGKVSSRIGLSSPAKLFNQNSSLFDEIRAEHEQQAIHCVLVDECQFLTRQQVYELSEVVDQLDIPVLCYGLRTDFRGELFIGSQYLLAWSDKLVELKTICFCGRKASMVLRLDQAGRPYNEGEQVVIGGNERYVSVCRKHYKEALQVDSLTAIQERHRHD	6.8 h

====

# total protein half-life in vivo per record follows
assay: total protein half-life in vivo (active degradation + dilution); higher = more stable protein; conditions: E. coli NCM3722 delta-lon; growth: N-lim chemostat; doubling time 6 h

sequence.code	total protein half-life in vivo (h)
MRTVLNILNFVLGGFATTLGWLLATLVSIVLIFTLPLTRSCWEITKLSLVPYGNEAIHVDELNPAGKNVLLNTGGTVLNIFWLIFFGWWLCLMHIATGIAQCISIIGIPVGIANFKIAAIALWPVGRRVVSVETAQAAREANARRRFE [P0AB12]	5.93
MDFNLNDEQELFVAGIRELMASENWEAYFAECDRDSVYPERFVKALADMGIDSLLIPEEHGGLDAGFVTLAAVWMELGRLGAPTYVLYQLPGGFNTFLREGTQEQIDKIMAFRGTGKQMWNSAITEPGAGSDVGSLKTTYTRRNGKIYLNGSKCFITSSAYTPYIVVMARDGASPDKPVYTEWFVDMSKPGIKVTKLEKLGLRMDSCCEITFDDVELDEKDMFGREGNGFNRVKEEFDHERFLVALTNYGTAMCAFEDAARYANQRVQFGEAIGRFQLIQEKFAHMAIKLNSMKNMLYEAAWKADNGTITSGDAAMCKYFCANAAFEVVDSAMQVLGGVGIAGNHRISRFWRDLRVDRVSGGSDEMQILTLGRAVLKQYR	3.62
MVDQAQDTLRPNNRLSDMQATMEQTQAFENRVLERLNAGKTVRSFLITAVELLTEAVNLLVLQVFRKDDYAVKYAVEPLLDGDGPLGDLSVRLKLIYGLGVINRQEYEDAELLMALREELNHDGNEYAFTDDEILGPFGELHCVAALPPPPQFEPADSSLYAMQIQRYQQAVRSTMVLSLTELISKISLKKAFQK [P0AF10]	4.01

====

test: total protein half-life in vivo (active degradation + dilution); higher = more stable protein; conditions: E. coli NCM3722 delta-smpB; growth: N-lim chemostat; doubling time 6 h
# total protein half-life in vivo per record follows

sequence.code	total protein half-life in vivo, h
MNNHFKCIGIVGHPRHPTALTTHEMLYRWLCTKGYEVIVEQQIAHELQLKNVKTGTLAEIGQLADLAVVVGGDGNMLGAARTLARYDIKVIGINRGNLGFLTDLDPDNAQQQLADVLEGHYISEKRFLLEAQVCQQDCQKRISTAINEVVLHPGKVAHMIEFEVYIDEIFAFSQRSDGLIISTPTGSTAYSLSAGGPILTPSLDAITLVPMFPHTLSARPLVINSSSTIRLRFSHRRNDLEISCDSQIALPIQEGEDVLIRRCDYHLNLIHPKDYSYFNTLSTKLGWSKKLF [P0A7B3]	4.75
MNTDTFMCSSDEKQTRSPLSLYSEYQRMEIEFRAPHIMPTSHWHGQVEVNVPFDGDVEYLINNEKVNINQGHITLFWACTPHQLTDTGTCQSMAIFNLPMHLFLSWPLDKDLINHVTHGMVIKSLATQQLSPFEVRRWQQELNSPNEQIRQLAIDEIGLMLKRFSLSGWEPILVNKTSRTHKNSVSRHAQFYVSQMLGFIAENYDQALTINDVAEHVKLNANYAMGIFQRVMQLTMKQYITAMRINHVRALLSDTDKSILDIALTAGFRSSSRFYSTFGKYVGMSPQQYRKLSQQRRQTFPG [P0ACH8]	1.89
METVFDALKAMGKATSIELAARLDISREEVLNELWELKKAGFVDKSAYTWRVADNNVQQEQPAQAELPEEITTATVAKISECDLTATIEQRGPQTADELATLFGTTSRKVASTLAMAISKGRLIRVNQGGKFRYCIPGDNLPAEPKAASVSPLWLSASSSACHGVLIITVITPSPTKNSATKMPEN	1.14
MKLTTHHLRTGAALLLAGILLAGCDQSSSDAKHIKVGVINGAEQDVAEVAKKVAKEKYGLDVELVGFSGSLLPNDATNHGELDANVFQHRPFLEQDNQAHGYKLVAVGNTFVFPMAGYSKKIKTVAQIKEGATVAIPNDPTNLGRALLLLQKEKLITLKEGKGLLPTALDITDNPRHLQIMELEGAQLPRVLDDPKVDVAIISTTYIQQTGLSPVHDSVFIEDKNSPYVNILVAREDNKNAENVKEFLQSYQSPEVAKAAETIFNGGAVPGW	6.67
MMNPLIIKLGGVLLDSEEALERLFSALVNYRESHQRPLVIVHGGGCVVDELMKGLNLPVKKKNGLRVTPADQIDIITGALAGTANKTLLAWAKKHQIAAVGLFLGDGDSVKVTQLDEELGHVGLAQPGSPKLINSLLENGYLPVVSSIGVTDEGQLMNVNADQAATALAATLGADLILLSDVSGILDGKGQRIAEMTAAKAEQLIEQGIITDGMIVKVNAALDAARTLGRPVDIASWRHAEQLPALFNGMPMGTRILA [P0A6C8]	3.02
MSFFHASQRDALNQSLAEVQGQINVSFEFFPPRTSEMEQTLWNSIDRLSSLKPKFVSVTYGANSGERDRTHSIIKGIKDRTGLEAAPHLTCIDATPDELRTIARDYWNNGIRHIVALRGDLPPGSGKPEMYASDLVTLLKEVADFDISVAAYPEVHPEAKSAQADLLNLKRKVDAGANRAITQFFFDVESYLRFRDRCVSAGIDVEIIPGILPVSNFKQAKKFADMTNVRIPAWMAQMFDGLDDDAETRKLVGANIAMDMVKILSREGVKDFHFYTLNRAEMSYAICHTLGVRPGL [P0AEZ1]	3.16
MPLLDIRNLTIEFKTGDEWVKAVDRVSMTLTEGEIRGLVGESGSGKSLIAKAICGVNKDNWRVTADRMRFDDIDLLRLSARERRKLVGHNVSMIFQEPQSCLDPSERVGRQLMQNIPAWTYKGRWWQRFGWRKRRAIELLHRVGIKDHKDAMRSFPYELTEGECQKVMIAIALANQPRLLIADEPTNSMEPTTQAQIFRLLTRLNQNSNTTILLISHDLQMLSQWADKINVLYCGQTVETAPSKELVTMPHHPYTQALIRAIPDFGSAMPHKSRLNTLPGAIPLLEQLPIGCRLGPRCPYAQRECIVTPRLTGAKNHLYACHFPLNMEKE [P0AAH4]	5.11
MAIALVTGGSRGIGRATALLLAQEGYTVAVNYQQNLHAAQEVMNLITQAGGKAFVLQADISDENQVVAMFTAIDQHDEPLAALVNNAGILFTQCTVENLTAERINRVLSTNVTGYFLCCREAVKRMALKNGGSGGAIVNVSSVASRLGSPGEYVDYAASKGAIDTLTTGLSLEVAAQGIRVNCVRPGFIYTEMHASGGEPGRVDRVKSNIPMQRGGQAEEVAQAIVWLLSDKASYVTGSFIDLAGGK	4.82
MQILADLLNTIPAIDSTAMSRAQRHIDGLLKPVGSLGKLEVLAIQLAGMPGLNGIPHVGKKAVLVMCADHGVWEEGVAISPKEVTAIQAENMTRGTTGVCVLAEQAGANVHVIDVGIDTAEPIPGLINMRVARGSGNIASAPAMSRRQAEKLLLDVICYTQELAKNGVTLFGVGELGMANTTPAAAIVSTITGRDPEEVVGIGANLPTDKLANKIDVVRRAITLNQPNPQDGVDVLAKVGGFDLVGIAGVMLGAASCGLPVLLDGFLSYAAALAACQMSPAIKPYLIPSHLSAEKGARIALSHLGLEPYLNMEMRLGEGSGAALAMPIIEAACAIYNNMGELAASNIVLPGNTTSDLNS	3.17
MFKPHVTVACVVHAEGKFLVVEETINGKALWNQPAGHLEADETLVEAAARELWEETGISAQPQHFIRMHQWIAPDKTPFLRFLFAIELEQICPTQPHDSDIDCCRWVSAEEILQASNLRSPLVAESIRCYQSGQRYPLEMIGDFNWPFTKGVI [P0AEI6]	4.93
MAYFLDFDERALKEWRKLGSTVREQLKKKLVEVLESPRIEANKLRGMPDCYKIKLRSSGYRLVYQVIDEKVVVFVISVGKRERSEVYSEAVKRIL [P0C077]	2.83
